Assay: Immunotoxin (HA22) sensitization/mitigation study. Vehicle arm (PBS) (AID 1159510)
Settings: cancer cells viability with PBS vehicle (HA22 study); series mostly up to 46.1 µM
Active and inactive are the calls of the source. How the calls were made is not given here.
Outcomes: TRUE (active), FALSE (inactive)

[
  {
    "Compound": "Cc1[nH]c2ccccc2c1CCNCc1ccc(C=CC(=O)NO)cc1",
    "Assigned Category": "TRUE"
  },
  {
    "Compound": "CC(C)(C)c1cc(C(=O)O)c(NC(=O)Nc2ccc3[nH]ncc3c2)s1",
    "Assigned Category": "FALSE"
  },
  {
    "Compound": "Cc1c(CN2CCN(C(=O)C(C)C)CC2)sc2c(N3CCOCC3)nc(-c3cnc(N)nc3)nc12",
    "Assigned Category": "TRUE"
  },
  {
    "Compound": "C=C1C(=CC=C2CCCC3(C)[C@@H]([C@H](C)C=CC=CC(O)(CC)CC)CC[C@@H]23)C[C@@H](O)C[C@@H]1O (some centres not stated)",
    "Assigned Category": "TRUE"
  },
  {
    "Compound": "CNC(=O)c1cc(Oc2ccc(NC(=O)Nc3ccc(Cl)c(C(F)(F)F)c3)c(F)c2)ccn1",
    "Assigned Category": "TRUE"
  },
  {
    "Compound": "CCN(CC)CCOc1ccc(Nc2ncc3cc(-c4c(Cl)cccc4Cl)c(=O)n(C)c3n2)cc1",
    "Assigned Category": "TRUE"
  },
  {
    "Compound": "CN(c1ncccc1CNc1nc(Nc2ccc3c(c2)CC(=O)N3)ncc1C(F)(F)F)S(C)(=O)=O",
    "Assigned Category": "TRUE"
  },
  {
    "Compound": "CCCCOCCOc1nc(-c2ccc(C(=O)O)c(F)c2)sc1C",
    "Assigned Category": "TRUE"
  },
  {
    "Compound": "COc1ccc(-c2ccc3c(N4CCOC[C@H]4C)nc(N4CCOC[C@H]4C)nc3n2)cc1CO",
    "Assigned Category": "TRUE"
  },
  {
    "Compound": "Cc1nn(Cc2ccccc2Cl)c(C)c1CN(C)CC(O)COc1ccc(Cl)cc1 (configuration not stated)",
    "Assigned Category": "TRUE"
  },
  {
    "Compound": "Cc1cc([C@@H](C)Nc2ccccc2C(=O)O)c2nc(N3CCOCC3)cc(=O)n2c1",
    "Assigned Category": "TRUE"
  },
  {
    "Compound": "Cc1nc(-c2ccc(-c3ccc(C(=O)N4CCc5cc6c(cc54)C4(CCN(C)CC4)CO6)cc3)c(C)c2)no1",
    "Assigned Category": "TRUE"
  },
  {
    "Compound": "CC(C)c1ccc(Cn2ccc3c4c(N)nc(NC5CC5)nc4ccc32)cc1",
    "Assigned Category": "TRUE"
  },
  {
    "Compound": "Nc1ccccc1NC(=O)c1ccc(CNc2nccc(-c3cccnc3)n2)cc1",
    "Assigned Category": "TRUE"
  },
  {
    "Compound": "COc1ccc(C=Cc2cc(OC)c(OC)c(OC)c2)cc1O",
    "Assigned Category": "FALSE"
  },
  {
    "Compound": "CS(=O)(=O)c1cccc(CNc2nc(Nc3ccc4c(c3)CCC(=O)N4)ncc2C(F)(F)F)c1",
    "Assigned Category": "TRUE"
  },
  {
    "Compound": "Cc1cccc(C=NNc2cc(N3CCOCC3)nc(OCCc3ccccn3)n2)c1",
    "Assigned Category": "TRUE"
  },
  {
    "Compound": "O=C(Nc1cccc(Cl)c1)Nc1ncc(CCNc2ncnc3ccsc23)s1",
    "Assigned Category": "TRUE"
  },
  {
    "Compound": "COc1nc(-c2ccc3c(c2)OCO3)n(-c2ccc(NC(=O)CSc3ccccc3)cc2)n1",
    "Assigned Category": "TRUE"
  },
  {
    "Compound": "N#Cc1ccc(COC[C@H]2O[C@@H](n3c(NCc4ccc(Cl)c(Cl)c4)nc4c(N)ncnc43)[C@@H](O)[C@@H]2O)cc1",
    "Assigned Category": "TRUE"
  },
  {
    "Compound": "COc1ccc(-c2oc3cc(OC)ccc3c2C(=O)c2ccc(C#N)cc2)cc1",
    "Assigned Category": "FALSE"
  },
  {
    "Compound": "Cc1nc2cnc3ccc(C#Cc4cccnc4)cc3c2n1-c1ccc(C(C)(C)C#N)cc1",
    "Assigned Category": "TRUE"
  },
  {
    "Compound": "CC(C)(C)c1[nH]cnc1C=c1[nH]c(=O)c(=Cc2ccccc2)[nH]c1=O",
    "Assigned Category": "TRUE"
  },
  {
    "Compound": "O=C(NCCS(=O)(=O)c1ccc(C(F)(F)F)cn1)c1ccc(Cl)cc1",
    "Assigned Category": "FALSE"
  },
  {
    "Compound": "CC(C)C[C@@H](C(=O)N[C@H](C(=O)OC1CCCC1)c1ccccc1)[C@H](O)C(=O)NO",
    "Assigned Category": "TRUE"
  },
  {
    "Compound": "Cc1cc(C=c2sc3nc4ccccc4n3c2=O)c(C)n1-c1ccccc1",
    "Assigned Category": "TRUE"
  },
  {
    "Compound": "CC1=C(CO)C(=O)O[C@@H]([C@@H](C)[C@H]2CC[C@H]3[C@@H]4C[C@H]5O[C@]56[C@@H](O)C=CC(=O)[C@]6(C)[C@@H]4CC[C@]23C)C1",
    "Assigned Category": "TRUE"
  },
  {
    "Compound": "COc1cc2c(cc1O)CC[C@@H]1[C@@H]2CC[C@]2(C)[C@@H](O)CC[C@@H]12",
    "Assigned Category": "TRUE"
  },
  {
    "Compound": "C=C1C(=CC=C2CCC[C@]3(C)[C@@H]([C@H](C)C=C[C@H](C)C(C)C)CC[C@@H]23)C[C@@H](O)C[C@@H]1O",
    "Assigned Category": "TRUE"
  },
  {
    "Compound": "CC(NC(=O)Cc1cc(F)cc(F)c1)C(=O)NC(C(=O)OC(C)(C)C)c1ccccc1 (configuration not stated)",
    "Assigned Category": "FALSE"
  },
  {
    "Compound": "O=C(Nc1ccccc1-c1cn2c(CN3CCNCC3)csc2n1)c1cnc2ccccc2n1",
    "Assigned Category": "TRUE"
  },
  {
    "Compound": "CC(C)C[C@H](NC(=O)CNC(=O)c1cc(Cl)ccc1Cl)B(O)O",
    "Assigned Category": "TRUE"
  },
  {
    "Compound": "COc1cccc(OC)c1-c1cc(C(=O)NC2(C(=O)O)C3CC4CC(C3)CC2C4)nn1-c1ccnc2cc(Cl)ccc12 (configuration not stated)",
    "Assigned Category": "TRUE"
  },
  {
    "Compound": "CC(C)[C@H](C(=O)Nc1ccc(C(=O)NO)cc1)c1ccccc1",
    "Assigned Category": "TRUE"
  },
  {
    "Compound": "C[C@@]12O[C@@H](C[C@]1(O)CO)n1c3ccccc3c3c4c(c5c6ccccc6n2c5c31)CNC4=O",
    "Assigned Category": "TRUE"
  },
  {
    "Compound": "COc1c(Cl)cc2c([nH]c3cnccc32)c1NC(=O)c1cccnc1C",
    "Assigned Category": "FALSE"
  },
  {
    "Compound": "CCOc1cc(C=C2C(=O)N(c3ccccc3)N=C2C)cc(Cl)c1OCC(=O)OC",
    "Assigned Category": "TRUE"
  }
]

----------
Test: qHTS of pediatric cancer cell lines to identify multiple opportunities for drug repurposing: Confirmatory screen for Rh41 cells (AID 1347123);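 further: 48 h compound exposure; nearly all actives have a fitted effect of over 60% in size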; further: potency means the concentration at half of the fitted maximal effect
Settings: Rh41 rhabdomyosarcoma cells, viability/cytotoxicity qHTS; series mostly up to 45.9 µM
Experimental: Drug repurposing or repositioning has been offered as a strategy for drug development in oncology programs. […] [1] Shen, M et al. Quantitative high-throughput phenotypic screening of pediatric cancer cell lines identifies multiple opportunities for drug repurposing. […] Cells were assayed in growth media at a density of 500-1,000 cells/well. […] After a 15 min incubation at room temperature, samples were analyzed for luminescence intensity using a ViewLux High-throughput CCD imager equipped with clear filters.
Results filed as inconclusive are left out. Activity calls are given as the source filed them. Calls follow the shape of the dose curve; as a rule, active = well fitted cell-killing curve with a large enough effect; inconclusive = small, poorly fitted or top-dose-only effect; inactive = no such curve, though single readings can be large or run the other way.

[
  {
    "Chemical String": "CCCN1CCO[C@@H]2c3cc(O)ccc3OC[C@@H]21",
    "Potency": "inactive"
  },
  {
    "Chemical String": "CS(=O)(=O)c1ccc(C(=O)C2C(=O)CCCC2=O)c([N+](=O)[O-])c1",
    "Potency": "inactive"
  },
  {
    "Chemical String": "CC(C)N[C@@H]1CCn2c(=O)[nH]c3cccc(c32)[C@@H]1O",
    "Potency": "inactive"
  },
  {
    "Chemical String": "COC1=CC(C)=C[C@@H](C)[C@@H](O)[C@@H](C)CC(C)=CC=C[C@H](OC)[C@H]([C@@H](C)[C@@H](O)[C@H](C)[C@@]2(O)C[C@@H](O)[C@H](C)[C@@H](C(C)C)O2)OC1=O",
    "Potency": "inactive"
  },
  {
    "Chemical String": "S=C(SSC(=S)N1CCCCC1)N1CCCCC1",
    "Potency": "329 nM (active)"
  },
  {
    "Chemical String": "CC(C)(O)C=CC(=O)[C@](C)(O)[C@H]1[C@H](O)C[C@]2(C)[C@@H]3CC=C4[C@@H](C=C(O)C(=O)C4(C)C)[C@]3(C)C(=O)C[C@@]12C",
    "Potency": "208 nM (active)"
  }
]
